Examples of compounds with documented growth inhibition follow.
# protocolSummary: NCI Yeast Anticancer Drug Screen. Data for the mlh1 rad18 strain (AID 175)
# experimentalContext: S. cerevisiae mlh1 rad18 strain growth inhibition; at 50.0 µM; hits give high values
Compounds without any hit were thinned out: in the full panel of roughly 79,000, 15% have a hit. Where a SMILES comes first, the peptide text is derived from it. The star is where a group is joined. Cbz = O=C(OCc1ccccc1)*

| compound | growth inhibition (%) |
| --- | --- |
| [N-]=[N+]=CC(=O)c1cc(-c2ccccc2)nc2c(-c3ccccc3)cccc12 | 59.1 |
| Cn1nc2ccc([N+](=O)[O-])cc2[n+]1[O-] | -17.2 |
| COC(=O)/C(C#N)=C(/NCCN)Nc1ccccc1 | -8.15 |
| CC(=O)OC1C(COC(=O)c2ccccc2)OC(Nc2ncc(-c3ccc(Br)cc3)s2)C(OC(=O)c2ccccc2)C1OC(=O)c1ccccc1 (centres undefined) | -39.9 |
| Cc1ccc(N2C(=O)CS/C2=C(\C#N)c2nc3ccccc3[nH]2)cc1 | -40.2 |
| CC(C)=CCC(C)c1ccccn1 (centres undefined) | -4.2 |
| O=[N+]([O-])c1ccc(-c2nc3ccc(Cl)cc3[nH]2)cc1 | 44.5 |
| CC(=O)NCC(O)c1ccc([N+](=O)[O-])cc1 (centres undefined) | -23 |
| NC(=O)C(O)C(O)CO (centres undefined) | -5.25 |
| O=C(c1ccccc1Cl)c1ccc2ccccc2c1C(=O)O | 2.95 |
| COc1ccccc1NC(=O)Nc1ccc(Nc2ccccc2)cc1 | 92.7 |
| Cc1cc(C)n(/N=C/c2ccco2)c(=O)c1C#N | -10.7 |
| C/C(=C/C(=O)O)CC/C=C(/C)C(=O)O | 4.9 |
| COc1ccc(-c2nc3ccccc3[nH]2)cc1 | -3.1 |
| CS(=O)(=O)N(CCC#N)c1ccc(C=O)cc1 | 7 |
| CCCCCCCCCCCCCCCCCCNC(=O)Nc1ccc(OC)cc1OC | 13.3 |
| CN(C)CC(C)(C)CO | 4.95 |
| CC1(C)C2CCC1(C)C1(C2)OC(CCl)CS1 (centres undefined) | 8.4 |
| CSCCC(NC=O)C(=O)O (centres undefined) | 3.8 |
| CCOC(=O)/C(C#N)=C/c1ccccc1OC | 47.5 |
| CCCCCCCc1cc(OC(=O)c2c(C)cc(OC)cc2O)cc(O)c1C(=O)O | 16.8 |
| O=C1C(Cl)=C(NC(CO)(CO)CO)C(=O)c2ccccc21 | 8.15 |
| ONC1=Nc2cc(Cl)ccc2C(=S)N2CSCC12 (centres undefined) | 18.8 |
| CC(C)(C)[Si](C)(C)OCCc1ccccc1C1CC2(S(=O)(=O)c3ccccc3)ON1CC2S(=O)(=O)c1ccccc1 (centres undefined) | 21.4 |
| CCN(CC)CCCNc1nc2ccccc2c2c1ncn2CC(C)C | 6.35 |
| COc1ccc2c(c1)C(N)=C(c1ccccc1OC)C2=O | -38.5 |
| CCCCOC(=O)C12CCCCC1O2 (centres undefined) | -0.55 |
| O=C1CCCCC1C(O)(C(F)(F)F)C(F)(F)Cl (centres undefined) | -20.1 |
| BrC1(Br)C2COCOCC21 (centres undefined) | 8.05 |
| CCNC(=O)OCCN(CCOC(=O)NCC)CCc1cccc(OC)c1OC | 20.6 |
| NC(=O)c1ncnc2nc[nH]c12 | -10.6 |
| CCOC(=O)C1=C(Nc2ccc(Cl)cc2Cl)OCC1=O | 10.2 |
| CC(C)C(NC(=O)C(Cc1ccc(O)cc1)NC(=O)OCc1ccccc1)C(=O)O (stereo not drawn) (Cbz-Tyr-Val-OH; configuration not given here) | 1.8 |
| CCOC(=O)Nc1ccccc1 | 22.7 |
| FC(F)(F)c1ccc2c(c1)N(CCCN1CCN(CCN3CCCCC3)CC1)c1ccccc1S2 | 91.8 |
| O=C(COc1ccc(Cl)cc1C(=O)O)NCc1ccc([N+](=O)[O-])cc1 | -24.6 |
| CC(=O)OC1C=CC(OC(C)=O)C2C1[C@H]1C3C=CC=CC3[C@@H]2S1=O (some centres undefined) | -27.1 |
| CC(=O)Nc1ccc(O)c(C(=O)O)c1 | -24.4 |
| COC12C=CC(CC1)C(C)(C)C2=O (centres undefined) | -0.55 |
| N#Cc1ccc2ccccc2c1 | -16.8 |
| CC(C)(c1cccs1)c1cscc1C(=O)O | 16.7 |
| Cc1ccc(S(=O)(=O)N(CCCc2c(Cl)nc(N)nc2Cc2ccccc2)c2ccccc2)cc1 | -4.65 |
| Nc1cccc(CCc2nc(N)nc(N)c2-c2ccc(Cl)cc2)c1 | -14.3 |
| O=C(NC(=S)Nc1cccc(Cl)c1)c1ccccc1 | 12.4 |
| O=NN(CCOS(=O)(=O)c1ccc(Br)cc1)C(=O)NC1CCCCC1 | 25.2 |
| CC(C)(C#N)OC(=O)c1cc([N+](=O)[O-])cc([N+](=O)[O-])c1 | -2.1 |
| Cc1cn(C2CC(O)C(CO)O2)c(=O)nc1N1CCCC1 (centres undefined) | 0.55 |
| O[C@@H]1CC2(Cl)CC1(Cl)C(Cl)=C2Cl (some centres undefined) | 18.5 |
| Cc1ccc(O)c(C(=O)c2ccccc2C(=O)O)c1 | 22.4 |
